Where do these numbers come from? They come from patent US20250154525A1.

# Relative Fluorescence of Transfection of Jurkat Cells (RF) values compiled below
Test system: Jurkat Cells
Experiment: GFP plasmid transfection with DOTMA/DOPE plus surface ligand peptide, fluorescent plate reader (Example 1)
Format: cell-based
Conditions: DOTMA/DOPE + peptide linked to R12 or K16; EF1Alpha eGFP plasmid; 42 hours
Please give the numeric answer without any surrounding text.

Problem: Supply recorded Relative Fluorescence of Transfection of Jurkat Cells (RF) for 452 (CNYYSNSYSFWLASLNPER) [compound 452] here.
Result: 2554

Problem: Please look at this substance and report its Relative Fluorescence of Transfection of Jurkat Cells (RF): 379 (TAGSCLRKF) [compound 379]
Result: 7711
